All values here come from the RNAGym collection of RNA variant scans (doi:10.1093/nar/gkz1192).

In this section, each of the variants is paired with its reported self-cleavage.
B1: CPEB3 Ribozyme (parent)
chain: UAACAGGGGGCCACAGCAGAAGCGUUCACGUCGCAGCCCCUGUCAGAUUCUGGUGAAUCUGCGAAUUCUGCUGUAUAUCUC

- Variants of: B1
- assayProtocol: self-cleavage, relative activity (ratio to wild type); higher = more cleavage; in vitro, sequencing
Just the number, please.

Check out these entries, answers already filled in.
**Query** Please supply the value of reported self-cleavage for the item UAACAGGGGGCCACAGCAGAAGCGCUCACGUCGCAGCCCCUGUCAGAUUCUGGUGAAUCUGCGAAUUCUACUGUAUAUCUC [U25C G70A]
**Result** 0.3

**Query** Give the reported value of self-cleavage for this record: UAACAGGGGGCCACAGCAGAAGCGUUCACGUCGCAGCCCCUGUCAGAAUCUGGUGAAUCUGCGAAUUCUGCUGUAUAUGUC [U48A C79G]
**Result** 0.73

**Query** Supply self-cleavage value. Item: UAACAGGGGGACACAGCAGAAGCGUUCACGUCGCAGCCCCUGUCAGAUUCUGGUGAAUCUGCGAAUUCUGCUGUAUAUCCC [C11A U80C]
**Result** 0.5

**Query** Give self-cleavage for UAACAGGGGGCCACAGUAGAAGCGUUCACGUCGCAGCCCCUGUCAGAUUCUGGUGAAUCUGCGAAUUCUGCAGUAUAUCUC [C17U U72A]
**Result** 0.21

**Query** Return value of self-cleavage for input UAACAGGGGGGCACAGCAGAAGCGUUCACGUCGCAGCCCCUGUCAGAUUCUGGUGAAUCUGCGAAUUCUGCUGUAUAUCUC [C11G] , no commentary.
**Result** 0.52

**Query** Fill in self-cleavage for record UAACAGGGGGCCACAGCAGAAGCGUUCACGUCGCAGCCCCUGUCAGACUCUGGUGAAUCUGCGAAUUCUACUGUAUAUCUC [U48C G70A]
**Result** 0.19

**Query** Supply recorded self-cleavage for UAACAGGGGGCCACAGCAGAAGCGUUCACGUCGCAGCCCCUGUCAGAUUCUGGUGGAUCUGCGAAUUCUACUGUAUAUCUC [A56G G70A] here.
**Result** 0.49

**Query** For the variant UAACAGGGGGCCCCAGCAGAUGCGUUCACGUCGCAGCCCCUGUCAGAUUCUGGUGAAUCUGCGAAUUCUGCUGUAUAUCUC [A13C A21U] , give its reported self-cleavage.
**Result** 0.49

Others:
**Query** Answer with the recorded self-cleavage of UAACAGGGGACCACAGCAGAAGCGUUCACGUCGCAGCCCCUGUCAGAUUCUGGUGAAUCUGCGAAUUCUGCUGUGUAUCUC [G10A A75G] only.
**Result** 0.19

**Query** Return self-cleavage for the following variant: UAACAGGGGGCCACGGCAGAAGCGUGCACGUCGCAGCCCCUGUCAGAUUCUGGUGAAUCUGCGAAUUCUGCUGUAUAUCUC [A15G U26G]
**Result** 0.55

**Query** Tell me self-cleavage reported for UAACUGGGGGCCACAGCAGAAGCGUUCACGUCGCAGCCCCUGUCAGAUUCUGGUGAAUCUGCGAAUUCUGCUGUGUAUCUC [A5U A75G]
**Result** 0.95

**Query** Assign self-cleavage to the following record: UAACAGGGGGCCACAGCAGAGGCGUUCACGUCGCAGCCCCUGUCAGAUUCUGGUGAAUCUGCGAAUUCUGCUGUAUAUCGC [A21G U80G]
**Result** 0.76

**Query** Provide only the value of recorded self-cleavage for UAACAGGGGGCAACAGCAGAAGCGUUCACGCCGCAGCCCCUGUCAGAUUCUGGUGAAUCUGCGAAUUCUGCUGUAUAUCUC [C12A U31C]
**Result** 1.14

**Query** Please look at this variant and report its self-cleavage: UAACAGGGGGCCACAGCAGAGGCGUUCACGUCGCUGCCCCUGUCAGAUUCUGGUGAAUCUGCGAAUUCUGCUGUAUAUCUC [A21G A35U]
**Result** 0.27
